System: Bloodstream form T. b. brucei (Lister 427)
Experiment: Trypanosoma brucei brucei Alamar Blue assay
Assay type: cell-based
Conditions: Trypanosoma brucei; Table 1; Alamar Blue, 48 h + 24 h; all standard deviations less than 2%; read-out: IC50 against Trypanosoma brucei brucei
Would you mind telling me the reported IC50 of each entry?
Write the answer as a number in nM, unit excluded.

Prompt: Entry under review: COc1cccc(C(=N)Nc2cc(C(=O)Nc3cc(C(=O)Nc4cc(C(=O)NCCCN(C)C)n(C)c4)n(C(C)C)c3)n(C)c2)c1 . Reported IC50?
Response: 27000

Prompt: Please give the result for CC(C)CCc1sc(NC(=O)c2cc(NC(=O)c3cc4ccccc4cn3)cn2C)nc1C(=O)NCCCN(C)C too.
Response: 390

Prompt: Please give the result for CC(C)CCc1sc(NC(=O)c2cc(NC(=O)c3cc(/C=C/c4ccc([N+](=O)[O-])cc4)cn3C)cn2C)nc1C(=O)NCCN1CCOCC1 too.
Response: 5.4

Prompt: Please give the result for CC(C)CCc1sc(NC(=O)c2cc(NC(=O)c3ccc(/C=C/c4ccc5ccccc5n4)cc3)cn2C)nc1C(=O)NCCN1CCOCC1 too.
Response: 620

Prompt: Please give the result for CN(C)c1ccc(/C=C/c2ccc(C(=O)Nc3cc(C(=O)Nc4cc(C(=O)NCCN5CCOCC5)n(C)c4)n(C)c3)cn2)cc1 too.
Response: 170

Prompt: Please give the result for Cn1cc(NC(=O)c2cc(NC(=O)c3ccc(/C=C/c4ccc(C(F)(F)F)cc4)cc3)cn2C)cc1C(=O)NCCN1CCOCC1 too.
Response: 730

* * *

Would you mind telling me the reported SI (selectivity index) of each entry?
Tested on: HEK 293 cells
Assay: HEK 293 cytotoxicity assay (AlamarBlue viability)
Assay type: cell-based, human
Settings: HEK 293 IC50 taken as 20 μM (10 μM estimated for compound 21) versus T. b. brucei IC50
Method: Compounds were tested in an AlamarBlue viability assay using fluorescent intensity as the output. Briefly, Human Embryonic Kidney cells (HEK 293) were cultured in DMEM (Dulbeccos Modified Eagle Medium) plus 10% Foetal Bovine Serum (FBS) in a humidified environment at 37 °C and 5% CO2. […] The assay plates were returned to the incubator for 6 h then the total fluorescent intensity determined at 535 nm excitation and 585 nm emission using the Perkin Elmer ENVISION 2101 Multilabel Reader. […]
Marks after values point to notes of the source that are not given here.

Prompt: Entry under review: Cn1cc(NC(=O)c2cc(NC(=O)c3cc(NC(=O)c4cc5ccccc5cn4)cn3C)cn2C)cc1C(=O)NCCCN1CCOCC1 . Reported SI (selectivity index)?
Response: >2941

Prompt: Please give the result for Cn1cc(NC(=O)c2cc(NC(=O)c3ccc(/C=C/c4ccc5nonc5c4)cc3)cn2C)cc1C(=O)NCCN1CCOCC1 too.
Response: >1052

Prompt: Please give the result for CC(C)CCc1sc(NC(=O)c2cc(NC(=O)c3cc(/C=C/c4ccc([N+](=O)[O-])cc4)cn3C)cn2C)nc1C(=O)NCCN1CCOCC1 too.
Response: >1851*

Prompt: Please give the result for Cn1cc(NC(=O)c2cc(NC(=O)c3ccc(/C=C/c4ccc5nsnc5c4)cc3)cn2C)cc1C(=O)NCCN1CCOCC1 too.
Response: >2739

Prompt: Please give the result for CC(C)CCc1sc(NC(=O)c2cc(NC(=O)c3ccc(/C=C/c4ccc5ccccc5c4)cc3)cn2C)nc1C(=O)NCCN1CCOCC1 too.
Response: >500

* * *

Test system: Bloodstream form T. b. brucei (Lister 427)
Assay: Trypanosoma brucei brucei Alamar Blue assay
Format: cell-based
Conditions: Trypanosoma brucei; Table 1; Alamar Blue, 48 h + 24 h; all standard deviations less than 2%; read-out: IC50 against Trypanosoma brucei brucei
pIC50: −log10 of the molar value.
Threshold check on pIC50: at or above 6 gives True, strictly below gives False.

Prompt: Hi team, for CN(C)CCCNC(=O)c1cc(NC(=O)c2cc(NC(=O)c3cc4ccccc4cn3)cn2C)cn1C , is the recorded pIC50 at or above 6?
Response: False

Prompt: Please give the result for Cn1cc(NC(=O)c2cc(NC(=O)c3ccc(/C=C/c4cccc(F)c4)cc3)cn2C)cc1C(=O)NCCN1CCOCC1 too.
Response: True

Prompt: Please give the result for Cn1cc(NC(=O)c2cc(NC(=O)c3cc(NC(=O)c4ccc(Cl)cc4Cl)cn3C)cn2C)cc1C(=O)NCCN1CCOCC1 too.
Response: True

Prompt: Please give the result for CC(C)CCc1sc(NC(=O)c2cc(NC(=O)c3ccc(/C=C/c4ccc5ccccc5c4)cc3)cn2C)nc1C(=O)NCCN1CCOCC1 too.
Response: True

Prompt: Please give the result for Cn1cc(NC(=O)c2cc(NC(=O)c3cc(NC(=O)c4cc5ccccc5cn4)cn3C)cn2C)cc1C(=O)NCCCN1CCOCC1 too.
Response: True

* * *

Test system: Bloodstream form T. b. brucei (Lister 427)
Test: Trypanosoma brucei brucei Alamar Blue assay
Format: cell-based
Conditions: Trypanosoma brucei; Table 1; Alamar Blue, 48 h + 24 h; all standard deviations less than 2%; read-out: IC50 against Trypanosoma brucei brucei
quantity.kind: IC50 (nM)
Write the answer as a number in nM, unit excluded.

Prompt: Entry under review: Cn1cc(NC(=O)c2cc(NC(=O)c3ccc(/C=C/c4ccc5nsnc5c4)cc3)cn2C)cc1C(=O)NCCN1CCOCC1 [Compound 28] . Reported IC50?
Response: 7.3

Prompt: Please give the result for COc1cccc(/C=C/c2cccc(C(=O)Nc3cc(C(=O)Nc4nc(C(=O)NCCCN(C)C)c(CCC(C)C)s4)n(C)c3)c2)c1 [Compound 12] too.
Response: 180

Prompt: Please give the result for Cn1cc(NC(=O)c2cc(NC(=O)c3ccc(/C=C/c4ccncc4)cc3)cn2C)cc1C(=O)NCCN1CCOCC1 [Compound 24] too.
Response: 380

Prompt: Please give the result for COc1ccc(/C=C/c2ccc3cc(C(=O)Nc4cc(C(=O)Nc5cc(C(=O)NCCN6CCOCC6)n(C)c5)n(C)c4)ccc3n2)cc1 [Compound 30] too.
Response: 630

Prompt: Please give the result for Cn1cc(NC(=O)c2cc(NC(=O)c3cc(NC(=O)c4ccc(Cl)cc4Cl)cn3C)cn2C)cc1C(=O)NCCCN1CCOCC1 [Compound 25] too.
Response: 2300

Prompt: Please give the result for COc1cccc(/C=C/c2ccc(C(=O)Nc3cc(C(=O)Nc4nc(C(=O)NCCCN(C)C)c(CCC(C)C)s4)n(C)c3)cc2)c1 [Compound 11] too.
Response: 280

* * *

Tested on: Bloodstream form T. b. brucei (Lister 427)
Assay: Trypanosoma brucei brucei Alamar Blue assay
Type: cell-based
Details: Trypanosoma brucei; values given in nM; read-out: IC50 against T. b. brucei
quantity.kind: IC50

Prompt: Requested read-out IC50, target or system Bloodstream form T. b. brucei (Lister 427), entry Cn1cc(NC(=O)c2cc(NC(=O)c3cc(NC(=O)c4cc5ccccc5cn4)cn3C)cn2C)cc1C(=O)NCCCN1CCOCC1
Response: < 40 nM

Prompt: Please give the result for N=C(N)c1ccc(/N=N/Nc2ccc(C(=N)N)cc2)cc1 [Diminazene, diminazene, reference compound] too.
Response: 5 nM

Prompt: Please give the result for Cn1cc(NC(=O)c2cc(NC(=O)c3ccc(/C=C/c4ccc5nsnc5c4)cc3)cn2C)cc1C(=O)NCCN1CCOCC1 too.
Response: < 40 nM

Prompt: Please give the result for CC(C)CCc1sc(NC(=O)c2cc(NC(=O)c3ccc(/C=C/c4ccc5ccccc5c4)cc3)cn2C)nc1C(=O)NCCN1CCOCC1 too.
Response: < 40 nM

Prompt: Please give the result for Cn1cc(NC(=O)c2cc(NC(=O)c3ccc(/C=C/c4ccc5nonc5c4)cc3)cn2C)cc1C(=O)NCCN1CCOCC1 too.
Response: < 40 nM

Prompt: Please give the result for CC(C)CCc1sc(NC(=O)c2cc(NC(=O)c3cc(/C=C/c4ccc([N+](=O)[O-])cc4)cn3C)cn2C)nc1C(=O)NCCN1CCOCC1 too.
Response: < 40 nM
